- Assay Notes: NCI Yeast Anticancer Drug Screen. Data for the bub3 strain (AID 167)
- Experimental Conditions: S. cerevisiae bub3 mutant strain, at 50.0 µM, active compounds read high
This is part of a sample that, as a whole, favours compounds with a hit. Of some 79,000 tested, about 15% had one in any assay.
Measured Metric: growth inhibition (%)
Numbers only, in %.

Look over these answered cases.
ONC1=Nc2cc(Cl)ccc2C(=S)N2CSCC12 (stereo not drawn): -9.8
CCOC(=O)C(CSC(=O)c1ccccc1)NC(=O)OCc1ccccc1 (stereo not drawn): 2.65
c1ccc(-c2n[nH]c3c2CCCc2ccccc2-3)cc1: 3.3
O=Cc1ccc(-c2ccc([N+](=O)[O-])cc2)o1: -0.3
CN(C)c1ncnc2nc[nH]c12: -2.6

List growth inhibition for every entry below, keeping the order given.
1. O=C1c2cccc(O)c2C(=O)c2c(OC3OC(CO)C(OC4OC(CO)C(O)C(O)C4O)C(O)C3O)cccc21 (stereo not drawn)
2. CC(CS(=O)(=O)Cc1ccccc1)C(N)=O (stereo not drawn)
3. COc1ccc(CNc2cc(OC)c(OC)c(OC)c2)cc1
4. O=C(O)CCSc1ccccc1[N+](=O)[O-]
5. CS(=O)(=O)c1ccc(/C=C2/C=Cc3ccccc32)cc1

4.15
-9.95
-20.4
-0.9
30.2

Respectfully, I request growth inhibition for each entry included below.
1. CC(C)(C)c1[nH]ncc1CCC(=O)Nc1ccc(Cl)cc1Cl
2. CCCSc1ncnc2c1nc(C)n2CO
3. CC(SC(=S)SC(C)C(=O)O)C(=O)O (stereo not drawn)
4. CC1=C(C)C2C3C(=O)NC(=O)C3C1C1C3C(=O)NC(=O)C3C21 (stereo not drawn)

1: -16.1; 2: 2.3; 3: -6.1; 4: 10.1

Give measured growth inhibition for every item shown.
1. C=CCOC(=O)OCC=C
2. CCOC(=O)/C(=C/c1cn(C(C)=O)c2ccccc12)P(=O)(OC)OC

[23.2, 5.75]

Could you report growth inhibition for every entry in the following list?
1. CC1=CC(C)(C)NC(=S)N1c1cccc2c(S(=O)(=O)O)cccc12
2. O=[N+]([O-])c1ccccc1OC1OC(CO)C(O)C(O)C1O (stereo not drawn)
3. COc1nc(NC2OCC(O)C(O)C2O)c(NC2OCC(O)C(O)C2O)c(=O)n1C (stereo not drawn)
4. Cc1cccc(C)c1N1C(=O)C2c3[nH]c4ccccc4c3C3CCC(C(C)(C)C)CC3C2C1=O (stereo not drawn)

[4.55, -14.8, -31.1, 3.4]

* * *

- Assay Notes: NCI Yeast Anticancer Drug Screen. Data for the rad50 strain (AID 155);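 further: 0% = growth of vehicle-only cultures of the same strain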
- Experimental Conditions: S. cerevisiae rad50 strain growth inhibition; at 50.0 µM
Compounds without any hit were thinned out: in the full panel of roughly 79,000, 15% have a hit. Calls of active or inactive are those of the source. Cut-off read from the data, not from the text of the source: active = growth inhibition above about 70%; inactive = the rest.
The reply should be one of these categories: active, inactive

Some entries whose results are on file:
O=C(O)c1ccccc1C(=O)OCC1CCCc2ccccc21 (stereo not given): inactive
c1ccc2c(c1)ccc1c3ccccc3ccc21: inactive
COc1ccc2cc1Oc1ccc(cc1)CC1c3cc(c(OC)cc3CCN1C)Oc1c(O)c(OC)cc3c1C(C2)N(C)CC3 (stereo not given): inactive
O=c1[nH]nc(Sc2ccccc2)c2nncn12: inactive
OCc1ccncc1: inactive

Consider the additional compound presented here.
Outcome logged for `C1=Nc2ccccc2/C1=C/c1ccc2c(c1)OCO2` in this assay:
inactive

* * *

- Assay Notes: NCI Yeast Anticancer Drug Screen. Data for the bub3 strain (AID 167)
- Experimental Conditions: S. cerevisiae bub3 mutant strain, at 50.0 µM, active compounds read high
- Method: Growth inhibition of yeast strains with defined genetic alterations is measured as a screen for potential anti-cancer activity. Selected strains with alterations in DNA damage repair or cell cycle control were exposed to compounds and growth inhibition was measured relative to vehicle treated controls. The strain used in this assay is bub3
About 79,000 compounds went through this panel and 15% of them were active in at least one assay; those are over-represented in the sample as a whole.
Measured Metric: growth inhibition (%)
One number for each entry, in %.

// for each compound below, give its growth inhibition
1. Cc1ccccc1N1C(=O)/C(=C/c2ccc(N(CCC#N)CCC#N)cc2)N=C1c1cc([N+](=O)[O-])ccc1Cl
2. CC1CNC2C(C)C3C(CC4C5CCC6CC(N=Cc7ccccc7O)CCC6(C)C5CCC43C)OC2(O)C1 (stereo unspecified)
3. CN(C)CCCOCCn1c2c(c3ccccc31)CCCC2

-1.7
0.3
15.8

Batch lookup, growth inhibition per entry.
1. CC(=O)CC(=O)NCc1ccncc1
2. C1CCC(C2CCCC[N-]2)[N-]C1.C1CCC(C2CCCC[N-]2)[N-]C1.O=C(O)C(=O)O.[Ru+4] (stereo unspecified)
3. C=C(C(=C)P(=S)(c1ccccc1)c1ccccc1)P(=S)(c1ccccc1)c1ccccc1

1: 26.9; 2: -3.25; 3: -5.8

* * *

- Assay Notes: NCI Yeast Anticancer Drug Screen. Data for the mec2-1 strain (AID 157)
- Experimental Conditions: S. cerevisiae mec2-1 strain, at 50.0 µM
Compounds without any hit were thinned out: in the full panel of roughly 79,000, 15% have a hit. Calls of active or inactive are those of the source. Cut-off read from the data, not from the text of the source: active = growth inhibition above about 70%; inactive = the rest.
Output constraint: value belongs to active, inactive

# example entries with known answers
BrC1=CCC23CC=C(Br)[C@H]4CC2(COC3)C[C@@H]1O4 (stereo partly specified): inactive
C=C1CC[C@@H]2C(C)(C)CCC[C@@]2(C)[C@@H]1Cc1cc(O)ccc1O: active
CCCCOC(=O)CCc1nc2c([nH]1)c(=O)n(C)c(=O)n2C: inactive

Which result was noted for this compound in the test: COC(=O)C(=O)C(C(=O)C(=O)Nc1cc([N+](=O)[O-])ccc1[N+](=O)[O-])c1nc2ccc(C(=O)c3ccccc3)cc2[nH]c1=O (stereo unspecified)
inactive

Which outcome was entered for the compound `Cc1ccnc2[nH]c(-c3cccc(Cl)c3)cc(=O)c12` in this test?
inactive

What classification did CCCCCC(=O)OCC(Br)CBr (stereo unspecified) end up with in this test?
inactive

* * *

- Assay Notes: NCI Yeast Anticancer Drug Screen. Data for the sgs1 mgt1 strain (AID 161);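 further: 0% = growth of cultures given vehicle only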
- Experimental Conditions: S. cerevisiae sgs1 mgt1 strain, at 50.0 µM, active compounds read high
The panel holds about 79,000 compounds, 15% with a hit somewhere; the sample as a whole holds those more often.
Could you please report measured growth inhibition for the items listed next?
One number for each entry, in %.

The cases that follow already have their growth inhibition on record.
Cn1ncc2c(=O)[nH]c(NN)nc21: -4.8
COc1ccccc1NC(=O)C(Cc1ccccc1)NC(C)=O (stereo not drawn): -1.85
O=S(=O)(c1ccccc1)c1ccc(CI)cc1: 5.05
CC1=C/C(=N\N(C)C)C(C(O)(C(F)(F)F)C(F)(F)F)C(C)(C)C1 (stereo not drawn): -10.4
Cc1ccc(/C(O)=C/c2nc3ccc([N+](=O)[O-])cc3nc2/C=C(\O)c2ccc(C)cc2)cc1: -23.1

Please state, for each entry, its recorded growth inhibition.
1. Nc1nc2c(-c3ccc([N+](=O)[O-])cc3)nnn2c2ccccc12
2. NNc1c(F)c(F)c2c(F)c(F)c(F)c(F)c2c1F

37
95.5

Below are 2 molecules. Give each one its growth inhibition.
1. CC12CCC3C(CCC4CC(OC5CCCCO5)CCC43C)C1CC/C2=C/C#N (stereo not drawn)
2. COc1ccc(/C=C2\N=C(c3ccccc3)OC2=O)c(Br)c1OC(C)=O

1: 10.1; 2: -12.7

Give growth inhibition for each of the items listed below.
1. CCCCCC1(C)OCC(c2ccccc2)O1 (stereo not drawn)
2. Nc1nc(N)c(N=O)c(N)n1
3. O=S(=O)(O)c1cc(O)c2c(N=Nc3c(S(=O)(=O)O)cc4cc(S(=O)(=O)O)cc(N=Nc5c(S(=O)(=O)O)cc6cc(S(=O)(=O)O)cc(O)c6c5O)c4c3O)cc(S(=O)(=O)O)cc2c1
4. Cc1cc(N)c2cc(N)ccc2n1

1: -21; 2: 0.6; 3: 5.45; 4: 99.4

Quick batch: growth inhibition for everything below.
1. CCOP(=O)(OCC)/C(C#N)=C/c1ccc2ccccc2c1
2. COc1nc(N)c(C(=O)CCl)c(=O)n1C
3. CCCCCCC(=O)C(=O)O
4. CCCC(CCC)C(=O)[O-].CCCC(CCC)C(=O)[O-].CCCC(CCC)C(=O)[O-].CCCC(CCC)C(=O)[O-].[Cu+2].[Cu+2]
5. Clc1ccc(-n2cccc2)cc1
6. O=C1c2ccccc2C(=O)c2c1oc1c2ccc2ccccc21
7. CCCCCCC(Br)CCCC (stereo not drawn)
8. NC(N)=NS(=O)(=O)c1ccc(NC(=O)c2cccn3c(=O)c4ccccc4nc23)cc1

[-16.8, 6.5, 35.5, -2.8, 10.7, -4.35, 14, 30.3]

For every item in the list below, what is its measured growth inhibition?
1. CC(=O)Oc1ccc(-c2ccccc2)cc1C(=O)O
2. CCCc1cc(=O)oc2c3c(c4c(c12)OC(C)(C)CC4)O[C@H](C)C(C)C3=O (stereo partly drawn)

[29.4, -28.8]
